Recorded values, source patent US11186583B2.

- TARGET_OR_TEST_SYSTEM: CDK2/Cyclin E (Homo sapiens, UniProt P24941)
- Construct: made in house; host or cells: Sf9 insect cells (baculovirus)
- EXPERIMENT: CDK2/Cyclin E kinase inhibition, [γ-33P]ATP, histone H1
- Type: biochemical
- TEST_SETTINGS: Table 4; read-out: CDK2/E inhibition IC50
QUANTITY_NAME: IC50
Answer shape: numeric part, then the unit.

CC(C)c1[nH]nc2c(NCc3ccc(-n4cccn4)cc3)nc(SCC(C)(C)N)nc12 [Compound 4.90]; 11 nM
CC(C)c1n[nH]c2c(NCc3ccc(-c4cnccn4)cc3)nc(SCCO)nc12 [Compound 4.133]; 6 nM
CC(C)c1n[nH]c2c(NCc3ccc(-n4ccnc4)cc3)nc(SCCN)nc12 [Compound 4.57]; 5 nM
CC(C)c1[nH]nc2c(NCc3ccc(-n4cccn4)cc3)nc(SCC(O)CO)nc12 (stereo not drawn) [Compound 4.94]; 6 nM
CC(C)c1[nH]nc2c(NCc3ccc(-n4cccn4)cc3)nc(SCC(C)(C)O)nc12 [Compound 4.93]; 8 nM
CC(C)c1n[nH]c2c(NCc3ccc(-n4ccnc4)cc3)nc(SCCO)nc12 [Compound 4.50]; 10 nM
CC(C)c1[nH]nc2c(NCc3ccc(-n4cccn4)cc3)nc(SCCCN(C)C)nc12 [Compound 4.96]; 60 nM
CC(C)c1[nH]nc2c(NCc3ccc(-n4cccn4)cc3)nc(SCCN(C)C)nc12 [Compound 4.95]; 43 nM

The record that follows has no IC50 shown yet.
Any idea what its IC50 is? The molecule is CC(C)c1n[nH]c2c(NCc3ccc(-c4c[nH]cn4)cc3)nc(SCCO)nc12 [Compound 4.109]
5 nM

====

GI50 values recorded for HT (diffuse large B-cell lymphoma, subtype—germinal center B-cell)
Answer format: numeric, nM implied, no suffix.

C=CCSc1nc(NCc2ccc(-c3ccccn3)cc2)c2[nH]nc(C(C)C)c2n1; 1000

Return GI50 measured with HT (diffuse large B-cell lymphoma, subtype—germinal center B-cell) given this compound: CCC(CO)Sc1nc(NCc2ccc(-c3ccccn3)cc2)c2[nH]nc(C(C)C)c2n1 (centres unmarked)
255

Same question, CC(C)c1n[nH]c2c(NCc3ccc(-c4ccccn4)cc3)nc(SCCCN)nc12 this time
120

Same question, CSCCSc1nc(NCc2ccc(-c3ccccn3)cc2)c2[nH]nc(C(C)C)c2n1 this time
975

Same question, CC(C)c1n[nH]c2c(NCc3ccc(-c4ccccn4)cc3)nc(SCCN)nc12 this time
40

Same question, CC(C)c1n[nH]c2c(NCc3ccc(-c4ccccn4)cc3)nc(SCC(O)CN3CCNCC3)nc12 (centres unmarked) this time
332

Same question, CNCCSc1nc(NCc2ccc(-c3ccccn3)cc2)c2[nH]nc(C(C)C)c2n1 this time
56

Same question, CC(C)c1n[nH]c2c(NCc3ccc(-c4ccccn4)cc3)nc(SC3CCCCC3O)nc12 (centres unmarked) this time
636

====

- TARGET_OR_TEST_SYSTEM: CDK9/Cyclin T1 (Homo sapiens, UniProt P50750)
- Sequence (P50750 whole entry): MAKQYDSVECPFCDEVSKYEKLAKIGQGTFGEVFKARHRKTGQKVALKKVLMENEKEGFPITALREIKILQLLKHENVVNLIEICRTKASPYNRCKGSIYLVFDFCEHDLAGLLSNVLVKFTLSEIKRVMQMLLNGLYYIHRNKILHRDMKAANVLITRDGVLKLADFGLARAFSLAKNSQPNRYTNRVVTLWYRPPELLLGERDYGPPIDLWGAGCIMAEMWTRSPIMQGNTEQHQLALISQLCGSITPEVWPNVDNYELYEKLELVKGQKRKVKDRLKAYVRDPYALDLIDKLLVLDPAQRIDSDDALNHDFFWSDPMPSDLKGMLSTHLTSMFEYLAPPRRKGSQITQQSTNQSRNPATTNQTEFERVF
- Sequence (O60563 whole entry partner): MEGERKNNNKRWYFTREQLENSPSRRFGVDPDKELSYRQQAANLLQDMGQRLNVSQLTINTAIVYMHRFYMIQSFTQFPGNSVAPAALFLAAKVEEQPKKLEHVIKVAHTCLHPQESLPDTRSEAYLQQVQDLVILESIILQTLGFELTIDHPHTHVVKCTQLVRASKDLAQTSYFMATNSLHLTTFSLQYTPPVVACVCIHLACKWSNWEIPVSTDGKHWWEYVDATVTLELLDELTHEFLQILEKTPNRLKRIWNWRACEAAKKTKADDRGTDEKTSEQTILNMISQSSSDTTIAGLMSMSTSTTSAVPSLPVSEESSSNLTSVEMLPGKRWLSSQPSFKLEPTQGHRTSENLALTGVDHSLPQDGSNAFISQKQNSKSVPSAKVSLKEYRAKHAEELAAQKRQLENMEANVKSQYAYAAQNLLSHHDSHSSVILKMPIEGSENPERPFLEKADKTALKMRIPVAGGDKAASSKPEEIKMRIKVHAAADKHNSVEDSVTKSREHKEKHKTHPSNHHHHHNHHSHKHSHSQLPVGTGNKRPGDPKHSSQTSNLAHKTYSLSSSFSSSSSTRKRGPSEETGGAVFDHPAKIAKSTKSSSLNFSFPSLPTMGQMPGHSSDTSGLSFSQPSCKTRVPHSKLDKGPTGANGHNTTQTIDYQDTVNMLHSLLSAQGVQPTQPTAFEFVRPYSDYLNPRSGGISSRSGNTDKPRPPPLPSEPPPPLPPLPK
- EXPERIMENT: CDK9/Cyclin T1 kinase inhibition, [γ-33P]ATP, (YSPTSPS)2 KK peptide
- TEST_SETTINGS: CDK panel, tested at least in duplicates
QUANTITY_NAME: IC50 (nM)
Answer format: numeric, nM implied, no suffix.

Any idea what its IC50 is? The compound is CC[C@@H](CO)Nc1nc(NCc2ccc(-c3ccccn3)cc2)c2ncn(C(C)C)c2n1 [CR8]
272

====

GI50 values recorded for HT (diffuse large B-cell lymphoma, subtype—germinal center B-cell)
Answer shape: numeric part, then the unit.

CC(C)c1n[nH]c2c(NCc3ccc(-c4ccccn4)cc3)nc(SCCNC(=N)N)nc12; 390 nM
CC(C)c1n[nH]c2c(NCc3ccc(-c4ccccn4)cc3)nc(SCCC(N)=O)nc12; 120 nM
CC(C)c1n[nH]c2c(NCc3ccc(-c4ccccn4)cc3)nc(SCC(O)CN)nc12 (racemic); 55 nM
CC(C)c1n[nH]c2c(NCc3ccc(-c4ccccn4)cc3)nc(SCCCN(C)C)nc12; 105 nM

Any idea what its GI50 is? The compound is CC(C)c1n[nH]c2c(NCc3ccc(-c4ccccn4)cc3)nc(SCC3CNC(=O)O3)nc12 (centres unmarked)
80 nM

====

- Test system: HT (diffuse large B-cell lymphoma, subtype—germinal center B-cell)
QUANTITY_NAME: GI50
Answer shape: numeric part, then the unit.

Worked cases, answers included:
CC(C)c1n[nH]c2c(NCc3ccc(-c4ccccn4)cc3)nc(SCC(O)C(F)(F)F)nc12 (stereo not shown); 690 nM
CC(C)c1n[nH]c2c(NCc3ccc(-c4ccccn4)cc3)nc(SCCCO)nc12; 109 nM
CC(C)c1n[nH]c2c(NCc3ccc(-c4ccccn4)cc3)nc(SCC(N)=O)nc12; 192 nM
CC(C)c1n[nH]c2c(NCc3ccc(-c4ccccn4)cc3)nc(SCCO)nc12; 48 nM
COCSc1nc(NCc2ccc(-c3ccccn3)cc2)c2[nH]nc(C(C)C)c2n1; 340 nM
CCC(O)CSc1nc(NCc2ccc(-c3ccccn3)cc2)c2[nH]nc(C(C)C)c2n1 (stereo not shown); 273 nM
CC(=O)NCCSc1nc(NCc2ccc(-c3ccccn3)cc2)c2[nH]nc(C(C)C)c2n1; 71 nM
CC(C)c1n[nH]c2c(NCc3ccc(-c4ccccn4)cc3)nc(SC3OC(CO)C(O)C(O)C3O)nc12 (stereo not shown); 8070 nM
CC(C)c1n[nH]c2c(NCc3ccc(-c4ccccn4)cc3)nc(SC(CO)C(C)C)nc12 (stereo not shown); 980 nM
CC(C)c1n[nH]c2c(NCc3ccc(-c4ccccn4)cc3)nc(SC3CCCCC3N)nc12 (stereo not shown); 139 nM

Any idea what its GI50 is? The molecule is CC(C)c1n[nH]c2c(NCc3ccc(-c4ccccn4)cc3)nc(SC3CCCC3O)nc12 (stereo not shown)
567 nM

Same question, CC(C)c1n[nH]c2c(NCc3ccc(-c4ccccn4)cc3)nc(SCC(N)CN)nc12 (stereo not shown) this time
480 nM

====

- TARGET_OR_TEST_SYSTEM: CDK2/Cyclin E (Homo sapiens, UniProt P24941)
- Construct: made in house; host or cells: Sf9 insect cells (baculovirus)
- EXPERIMENT: CDK2/Cyclin E kinase inhibition, [γ-33P]ATP, histone H1
- Assay type: biochemical
- TEST_SETTINGS: Table 3; read-out: Enzyme inhibition IC50 CDK2/E
The entries below come with measured pIC50 values attached.
Field pIC50 (float): negative decimal logarithm of the concentration in molar.

CC(C)c1n[nH]c2c(NCc3ccc(-c4ccccn4)cc3)nc(SCCS)nc12 [Compound 4.35]; 6.49
CC(C)c1n[nH]c2c(NCc3ccc(-c4ccccn4)cc3)nc(SCCN)nc12 [Compound 4.9]; 8.40

Return pIC50 measured with CDK2/Cyclin E (Homo sapiens, UniProt P24941) given this compound: CC(C)c1n[nH]c2c(NCc3ccc(-c4ccccn4)cc3)nc(SC3OC(CO)C(O)C(O)C3O)nc12 (stereo not drawn) [Compound 4.22]
6.44

====

GI50 values recorded for MINO (mantle cell lymphoma)
Answer format: numeric, nM implied, no suffix.

Worked cases, answers included:
CC(=O)NCCSc1nc(NCc2ccc(-c3ccccn3)cc2)c2[nH]nc(C(C)C)c2n1; 42
CC(O)CSc1nc(NCc2ccc(-c3ccccn3)cc2)c2[nH]nc(C(C)C)c2n1 (stereo not drawn); 81
CC(C)c1n[nH]c2c(NCc3ccc(-c4ccccn4)cc3)nc(SC3OC(CO)C(O)C(O)C3O)nc12 (stereo not drawn); 21600
CC(C)c1n[nH]c2c(NCc3ccc(-c4ccccn4)cc3)nc(SCCN)nc12; 29
CC(C)c1n[nH]c2c(NCc3ccc(-c4ccccn4)cc3)nc(SCC(N)CN)nc12 (stereo not drawn); 770
CC(C)c1n[nH]c2c(NCc3ccc(-c4ccccn4)cc3)nc(SC(CO)C(C)C)nc12 (stereo not drawn); 1310
CC(C)c1n[nH]c2c(NCc3ccc(-c4ccccn4)cc3)nc(SCC(O)C(F)(F)F)nc12 (stereo not drawn); 641
CC(C)c1n[nH]c2c(NCc3ccc(-c4ccccn4)cc3)nc(SCCn3ccnc3)nc12; 135

Any idea what its GI50 is? The compound is CC(C)c1n[nH]c2c(NCc3ccc(-c4ccccn4)cc3)nc(SCC(O)CN3CCOCC3)nc12 (stereo not drawn)
243

====

- TARGET_OR_TEST_SYSTEM: CDK2/Cyclin E (Homo sapiens)
- Construct: made in house; host or cells: Sf9 insect cells (baculovirus)
- EXPERIMENT: CDK2/Cyclin E kinase inhibition, [γ-33P]ATP, histone H1
- Format: biochemical
- TEST_SETTINGS: CDK panel, tested at least in duplicates; read-out: IC50 CDK2
QUANTITY_NAME: pIC50
Field pIC50 (float): negative decimal logarithm of the concentration in molar.

Return pIC50 measured with CDK2/Cyclin E (Homo sapiens) given this compound: CC(C)c1n[nH]c2c(NCc3ccc(-c4ccccn4)cc3)nc(SCCN)nc12
8.30
